Biological target: UniProt Q920P2
Sequence (Q920P2 as listed by the source): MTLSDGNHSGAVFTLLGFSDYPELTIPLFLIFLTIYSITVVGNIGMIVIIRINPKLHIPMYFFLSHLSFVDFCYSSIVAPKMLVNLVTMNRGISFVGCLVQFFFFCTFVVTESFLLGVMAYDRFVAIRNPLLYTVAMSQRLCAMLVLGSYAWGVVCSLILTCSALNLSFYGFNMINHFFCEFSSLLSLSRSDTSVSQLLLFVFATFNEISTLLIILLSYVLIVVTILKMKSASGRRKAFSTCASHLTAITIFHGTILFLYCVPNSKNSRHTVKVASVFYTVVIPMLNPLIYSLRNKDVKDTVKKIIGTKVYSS
Settings: stereoisomer not certain
property measured: odorant receptor agonist call

CC(C)=CCCC(C)=CCO: inactive
COc1cc(C=O)cc(OC)c1O: inactive
COc1cc(C(=O)O)ccc1O: inactive
CC(C=O)Cc1ccc(C(C)(C)C)cc1 (centres undefined): inactive

----------
Target: UniProt Q8VG64
Sequence (Q8VG64 as listed by the source): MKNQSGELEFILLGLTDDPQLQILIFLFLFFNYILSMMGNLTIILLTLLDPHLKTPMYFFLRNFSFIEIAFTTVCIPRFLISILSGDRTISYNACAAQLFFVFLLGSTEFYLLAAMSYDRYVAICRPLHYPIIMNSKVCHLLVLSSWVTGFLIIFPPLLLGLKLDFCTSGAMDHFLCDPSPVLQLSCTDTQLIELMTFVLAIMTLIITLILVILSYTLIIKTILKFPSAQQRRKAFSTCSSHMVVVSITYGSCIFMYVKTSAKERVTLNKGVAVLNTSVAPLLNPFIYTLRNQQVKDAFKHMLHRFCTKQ
Details: stereoisomer not certain
Allowed answers: Yes for active, No for inactive

CCCCCC=O: No
CCCCCCC(=O)OCCCC: No
CCCCCCCCOC=O: No
Cc1ccc(OC(=O)C(C)C)cc1: No
CCSCC: No
COc1nccnc1C: No

Request: Recorded test call requested for CC=C(C)C=O
Response: No

Request: Recorded test call requested for CCCCCOC(=O)CC
Response: No

Request: Recorded test call requested for CC(=O)OCc1ccccc1
Response: No

Request: Recorded test call requested for CCCO
Response: No

----------
Biological target: UniProt K7N609
Sequence (whole entry): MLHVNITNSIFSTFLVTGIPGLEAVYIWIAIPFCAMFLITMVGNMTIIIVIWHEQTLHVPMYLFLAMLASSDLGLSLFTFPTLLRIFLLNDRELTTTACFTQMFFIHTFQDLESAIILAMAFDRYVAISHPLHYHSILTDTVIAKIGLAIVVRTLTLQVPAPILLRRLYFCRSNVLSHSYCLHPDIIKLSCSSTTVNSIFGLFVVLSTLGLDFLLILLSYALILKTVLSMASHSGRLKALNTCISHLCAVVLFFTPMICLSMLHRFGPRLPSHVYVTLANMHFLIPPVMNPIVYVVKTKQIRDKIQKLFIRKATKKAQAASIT
Conditions: stereoisomer not certain
Allowed answers: active, inactive

CC(C)=CCCC(C)=CCO: inactive

Request: Recorded test call requested for CCCCCCCCC(=O)O
Response: inactive

Request: Recorded test call requested for CCCCCC(=O)CC
Response: inactive

Request: Recorded test call requested for CC(=O)OCc1ccccc1
Response: inactive

Request: Recorded test call requested for CC(=O)OCC=C(C)C
Response: inactive

Request: Recorded test call requested for CC(C)=CCCC(C)CCO (stereo not drawn)
Response: inactive

Request: Recorded test call requested for CCCC(=O)C(C)=O
Response: inactive

Request: Recorded test call requested for CCCCCCC(=O)[O-].[H+]
Response: inactive

Request: Recorded test call requested for CCC(=O)C(=O)CC
Response: inactive

Request: Recorded test call requested for CCCC(C)=O
Response: inactive

----------
Biological target: OR1G1 (Homo sapiens)
Settings: stereoisomer not certain
property measured: odorant receptor agonist call

// solved cases for odorant receptor agonist call follow
CCCCC(O)CCC (configuration not stated): active
CCCCCC(=O)OC: inactive
CCCCCCC(C)=O: inactive
CCCCCCCO: active

Request: Quick one: give measured odorant receptor agonist call for COc1ccc(C)cc1
Response: inactive

----------
Tested on: OR6B2 R122C C179R
Conditions: stereoisomer not certain
property measured: odorant receptor agonist call

// solved cases for odorant receptor agonist call follow
CCCC(S)CCOC(C)=O (configuration not stated): inactive
CC1=NC(C)C(C)S1 (configuration not stated): inactive
CC1=C(O)C(=O)C(C)O1 (configuration not stated): inactive
CCC1OC(C)=C(O)C1=O (configuration not stated): inactive
CCCCCCC=CCCC=O: inactive
CCC1OC(=O)C(O)=C1C (configuration not stated): inactive

Request: Quick one: give measured odorant receptor agonist call for Cc1cnc(C)c(C)n1
Response: inactive

----------
Test system: OR5H2
Sequence (as listed by the source): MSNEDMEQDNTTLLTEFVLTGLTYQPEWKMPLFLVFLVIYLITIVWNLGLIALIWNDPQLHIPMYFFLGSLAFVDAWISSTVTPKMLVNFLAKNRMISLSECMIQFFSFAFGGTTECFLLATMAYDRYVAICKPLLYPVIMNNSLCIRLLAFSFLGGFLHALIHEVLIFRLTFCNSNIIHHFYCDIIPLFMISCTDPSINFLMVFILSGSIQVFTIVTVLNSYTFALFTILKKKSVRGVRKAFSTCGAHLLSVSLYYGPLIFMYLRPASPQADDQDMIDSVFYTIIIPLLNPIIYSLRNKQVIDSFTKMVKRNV
Details: stereoisomer not certain
property measured: odorant receptor agonist call

CCC1OC(C)=C(O)C1=O (stereo not given): inactive
CCC(S)C(C)CO (stereo not given): inactive
CC(=O)c1c(C)c([N+](=O)[O-])c(C(C)(C)C)c([N+](=O)[O-])c1C: inactive
Cc1cnc(C)c(C)n1: inactive
CC(CO)CS (stereo not given): inactive
CC1=NC(C)C(C)S1 (stereo not given): inactive
CC1=C(O)C(=O)OC1C (stereo not given): inactive
CCCCCC(S)C(C)CO (stereo not given): inactive

Request: Retrieve odorant receptor agonist call on OR5H2; query CCCCCC(=O)C(C)C(C)=O (stereo not given)
Response: inactive

Request: Retrieve odorant receptor agonist call on OR5H2; query CCCCC(S)C(C)CO (stereo not given)
Response: inactive

----------
Biological target: UniProt Q8VH10
Sequence (whole entry): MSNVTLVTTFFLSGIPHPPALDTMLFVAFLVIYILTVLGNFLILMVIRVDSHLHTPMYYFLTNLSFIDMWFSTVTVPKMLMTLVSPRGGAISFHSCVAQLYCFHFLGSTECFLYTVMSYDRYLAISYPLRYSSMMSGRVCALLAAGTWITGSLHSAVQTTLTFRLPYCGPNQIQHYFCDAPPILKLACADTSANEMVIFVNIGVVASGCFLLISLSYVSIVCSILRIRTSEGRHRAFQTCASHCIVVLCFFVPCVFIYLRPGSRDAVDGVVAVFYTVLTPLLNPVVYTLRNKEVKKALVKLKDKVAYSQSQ
Details: stereoisomer not certain
Allowed answers: active, inactive

CC(=O)Oc1ccccc1: active
O=C1Cc2ccccc2O1: inactive
CCCCCCC(=O)[O-].[H+]: inactive
CCCCC(=O)CC: inactive
CC(C)=CCCC(C)CCO (configuration not stated): inactive
CCC(C(=O)O)c1ccccc1 (configuration not stated): inactive
CCCCCC(=O)CC: inactive
CCCCCCCCCC(=O)[O-].[H+]: inactive

Request: Recorded test call requested for O=C1CCOc2ccccc21
Response: inactive

Request: Recorded test call requested for CCOC(=O)C(C)C
Response: inactive

Request: Recorded test call requested for CCCCCCOC(C)=O
Response: inactive

Request: Recorded test call requested for CCCCCCC(C)=O
Response: inactive

Request: Recorded test call requested for CCCCCCO
Response: inactive

Request: Recorded test call requested for C=CCOC(=O)CCCCCC
Response: inactive

Request: Recorded test call requested for CCCCCO
Response: inactive

Request: Recorded test call requested for CCCCCOC(=O)CCCCC
Response: inactive

Request: Recorded test call requested for CC(=O)OCc1ccccc1
Response: active

----------
Target: UniProt L7MU75
Sequence (L7MU75 as listed by the source): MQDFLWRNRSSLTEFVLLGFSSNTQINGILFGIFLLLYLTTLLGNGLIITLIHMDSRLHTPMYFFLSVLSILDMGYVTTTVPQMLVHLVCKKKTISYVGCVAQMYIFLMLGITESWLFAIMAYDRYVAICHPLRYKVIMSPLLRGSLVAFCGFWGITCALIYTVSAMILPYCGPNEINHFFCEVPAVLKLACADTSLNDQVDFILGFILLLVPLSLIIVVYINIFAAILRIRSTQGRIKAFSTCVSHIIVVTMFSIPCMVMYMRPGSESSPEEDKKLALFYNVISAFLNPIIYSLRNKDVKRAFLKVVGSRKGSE
Details: stereoisomer not certain
property measured: odorant receptor agonist call

CC(=O)C=CC1=C(C)CCCC1(C)C: inactive
CNc1ccccc1C(=O)OC: inactive
CC(=O)OCC=C(C)C: inactive
CCCCCC(=Cc1ccccc1)C(OC)OC: inactive
COc1cnccn1: inactive

Request: Quick one: give measured odorant receptor agonist call for CC(=O)Oc1ccccc1
Response: inactive

----------
Target: UniProt Q8VG27
Sequence (Q8VG27 as listed by the source): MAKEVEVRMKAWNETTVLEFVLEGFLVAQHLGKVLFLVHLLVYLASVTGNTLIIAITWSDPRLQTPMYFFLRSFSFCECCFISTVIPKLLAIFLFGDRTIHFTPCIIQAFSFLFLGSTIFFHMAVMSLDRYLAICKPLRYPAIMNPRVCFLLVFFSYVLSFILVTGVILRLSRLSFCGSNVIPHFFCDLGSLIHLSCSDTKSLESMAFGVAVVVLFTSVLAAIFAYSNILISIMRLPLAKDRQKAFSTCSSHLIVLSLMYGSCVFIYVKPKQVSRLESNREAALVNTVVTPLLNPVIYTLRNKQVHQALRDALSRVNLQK
Conditions: stereoisomer not certain
Allowed answers: active, inactive

Request: Recorded test call requested for CCCCCCC(C)=O
Response: inactive

Request: Recorded test call requested for CSSSC
Response: inactive

Request: Recorded test call requested for CC(=O)OCc1ccccc1
Response: inactive

Request: Recorded test call requested for CCCCCCCCC(=O)O
Response: inactive

Request: Recorded test call requested for CCCCC(=O)CC
Response: inactive

Request: Recorded test call requested for O=C([O-])CCCCCCC(=O)[O-].[H+].[H+]
Response: inactive

Request: Recorded test call requested for CCCCCOC(=O)CCCCC
Response: inactive

Request: Recorded test call requested for O=C(O)CCCCCBr
Response: inactive

Request: Recorded test call requested for O=C(O)CCCCCCCCC(=O)O
Response: inactive

----------
Molecular target: OR5M1 (Homo sapiens) (UniProt Q8NGP8)
Sequence (Q8NGP8 whole entry): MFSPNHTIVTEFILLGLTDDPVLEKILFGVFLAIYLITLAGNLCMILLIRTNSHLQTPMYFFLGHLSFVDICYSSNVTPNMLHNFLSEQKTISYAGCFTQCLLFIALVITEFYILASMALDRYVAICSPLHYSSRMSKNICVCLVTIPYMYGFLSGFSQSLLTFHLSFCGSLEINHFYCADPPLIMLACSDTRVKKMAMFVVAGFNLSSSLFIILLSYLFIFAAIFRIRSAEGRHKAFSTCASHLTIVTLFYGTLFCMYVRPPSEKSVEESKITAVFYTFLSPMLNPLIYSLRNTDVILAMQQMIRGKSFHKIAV
Conditions: stereoisomer not certain
property measured: odorant receptor agonist call

CC1=C(O)C(=O)OC1C (stereo not drawn): inactive
CC1=C(O)C(=O)C(C)O1 (stereo not drawn): inactive
CC1CCCCCCCCCCCCC(=O)C1 (stereo not drawn): inactive

----------
Biological target: OR8U9 (Homo sapiens)
Conditions: stereoisomer not certain
property measured: odorant receptor agonist call

CCCCCC(=O)C(C)C(C)=O (centres undefined): inactive
CCC1OC(C)=C(O)C1=O (centres undefined): inactive
CCC1OC(=O)C(O)=C1C (centres undefined): inactive
CCCC(S)CCOC(C)=O (centres undefined): inactive

----------
Target: OR6Y1 (Homo sapiens)
Conditions: stereoisomer not certain
property measured: odorant receptor agonist call

// solved cases for odorant receptor agonist call follow
CCCCCC(S)C(C)CO (centres undefined): inactive
CC(=O)c1c(C)c([N+](=O)[O-])c(C(C)(C)C)c([N+](=O)[O-])c1C: inactive
Cc1cnc(C)c(C)n1: inactive
CCC1OC(C)=C(O)C1=O (centres undefined): inactive
CCC(S)C(C)CO (centres undefined): inactive

Request: Quick one: give measured odorant receptor agonist call for CCC1OC(=O)C(O)=C1C (centres undefined)
Response: inactive

Request: Quick one: give measured odorant receptor agonist call for CCCCCC(=O)C(C)C(C)=O (centres undefined)
Response: inactive

Request: Quick one: give measured odorant receptor agonist call for CC1=C(O)C(=O)C(C)O1 (centres undefined)
Response: inactive

Request: Quick one: give measured odorant receptor agonist call for CCCC(S)CCOC(C)=O (centres undefined)
Response: inactive

----------
Target: UniProt Q8VH20
Sequence (Q8VH20 as listed by the source): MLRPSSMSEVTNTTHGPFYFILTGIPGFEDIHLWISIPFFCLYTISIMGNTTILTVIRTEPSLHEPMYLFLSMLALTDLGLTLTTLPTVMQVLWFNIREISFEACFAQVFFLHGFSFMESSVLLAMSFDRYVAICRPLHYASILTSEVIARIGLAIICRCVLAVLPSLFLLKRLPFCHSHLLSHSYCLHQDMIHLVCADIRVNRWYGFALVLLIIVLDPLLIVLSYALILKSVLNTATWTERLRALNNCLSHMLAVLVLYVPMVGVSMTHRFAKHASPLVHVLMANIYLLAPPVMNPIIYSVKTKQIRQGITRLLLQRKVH
Conditions: stereoisomer not certain
Allowed answers: yes (1) (active), no (0) (inactive)

CNc1ccccc1C(=O)OC: no (0)
OCC=Cc1ccccc1: no (0)
CCC(=O)C(=O)CC: no (0)
O=C1Cc2ccccc2O1: no (0)
CC(=O)OC1(C)CCC23CC1C(C)(C)C2CCC3C (stereo not drawn): yes (1)
CC(=O)OCc1ccccc1: no (0)
COc1cc(C(=O)O)ccc1O: no (0)

For the next question, use this compound.
Request: Recorded test call requested for CC1CCC(C(C)C)C(=O)C1 (stereo not drawn)
Response: no (0)

Source: the M2OR odorant receptor database
